# system.tested: Ribosomal protein S6 kinase alpha-3 (Homo sapiens);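 also: reported value is a mean inhibition figure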
# applied.conditions: at 0.1 µM
Provide the recorded inhibition for the entries that follow.

As a guide, the following entries are already answered.
CCS(=O)(=O)c1ccc(OC)c(Nc2ncc(-c3cccc(C(C)=O)c3)o2)c1	1.27%
CN1CCC(n2cnc(-c3ccc(F)cc3)c2-c2ccnc(NCCO)n2)CC1	0.9%
CS(=O)(=O)Nc1ccc(-c2ccc3c(NC(=O)C4CC4)n[nH]c3c2)cc1	0.62%
CCCNc1cccc(-n2ncc3c(N/N=C/c4ccncc4)ncnc32)c1	1.62%

From here, focus on the item given below.
Recorded result, Cc1ccc(-c2cc3c(NC(=O)C4CC4)ncnc3o2)cc1 , inhibition: 1.27%

----------
# system.tested: Protein kinase C iota type (Homo sapiens)
# applied.conditions: at 0.1 µM
# Description: GSK_PKIS: PKC-iota mean inhibition at 0.1 uM [Nanosyn]
Answer each item with its documented inhibition.

COC(=O)Nc1nc2ccc(Oc3ccc(NC(=O)Nc4cc(C(F)(F)F)ccc4F)cc3)cc2s1	-0.25%
CCCNc1cccc(-n2ncc3c(N/N=C/c4ccncc4)ncnc32)c1	3.86%
CC(C)c1ccc(-c2cc(-c3c[nH]nc3-c3ccccn3)ccn2)cc1	-0.37%
c1cnn2ncc(-c3ccnc(NCCCN4CCOCC4)n3)c2c1	0.92%
COc1cc(N2CCN(C(C)C)CC2)ccc1Nc1nc(Nc2cccc3ncccc23)c2cc[nH]c2n1	-0.08%

Each of the following entries comes with a recorded value; kindly state inhibition for each.
1. CS(=O)(=O)Nc1ccc(-c2cc(-c3ccccc3)cc(C(N)=O)c2N)cc1
2. N#Cc1cccc(Nc2ncc(-c3ccccc3)o2)c1
3. COc1cccc(-n2ncc3c(N/N=C/c4ccc(C(=O)NCCN(C)C)cc4)ncnc32)c1
4. CNC(=O)c1sc(-n2cnc3cc(OC)c(OC)cc32)cc1OCc1ccccc1C(F)(F)F

A.
1.17%
0.25%
2.38%
1.37%

COc1ccc2ncn(-c3cc(O[C@H](C)c4ccccc4C(F)(F)F)c(C(N)=O)s3)c2c1 has a reported inhibition of -1.03%

----------
# system.tested: Phosphatidylinositol 4,5-bisphosphate 3-kinase catalytic subunit alpha isoform (Homo sapiens);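 also: values are mean inhibition figures from the GSK PKIS kinase panel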
# applied.conditions: at 0.1 µM
measured.attribute: inhibition (%)
Numbers only, in %.

Cn1c(-c2nonc2N)nc2cnccc21	1.04

List the reported inhibition of each molecule below.
1. COc1ccc(Nc2ncc(-c3ccccc3)o2)cc1OC
2. O=C(O[C@H]1CN[C@H](C#Cc2cc3ncnc(Nc4ccc5c(ccn5Cc5cc(F)ccc5F)c4)c3s2)C1)N1CCOCC1
3. CNC(=O)c1sc(-n2cnc3cc(OC)c(OC)cc32)cc1OCc1ccccc1C(F)(F)F

A.
[-2.31, 3.72, 3.44]

Respectfully, I request inhibition for each entry included below.
1. COc1cccc(Nc2nccc(-c3cnn4ncccc34)n2)c1
2. NC(=O)c1ccc2c(-c3ccnc(NCCCO)n3)c(-c3ccc(F)cc3)nn2c1
3. Fc1cccc(COc2ccc(Nc3ncncc3C#Cc3ccccc3)cc2Cl)c1
4. CS(=O)(=O)Nc1ccc(-c2ccc3c(NC(=O)C4CC4)n[nH]c3c2)cc1
5. O=C(Nc1n[nH]c2nnc(-c3cccnc3)cc12)C1CC1
6. Cc1cc(O)cc(C)c1/C=C/c1cncc(C(N)=O)c1

A.
1: 3.25; 2: 2.83; 3: 3.88; 4: 2.67; 5: 0.13; 6: 0.88

----------
Consider the following compounds; for each one, report its inhibition.
# system.tested: Macrophage-stimulating protein receptor (Homo sapiens) (UniProt Q04912)
# Sequence (Q04912 25-304 limits assumed): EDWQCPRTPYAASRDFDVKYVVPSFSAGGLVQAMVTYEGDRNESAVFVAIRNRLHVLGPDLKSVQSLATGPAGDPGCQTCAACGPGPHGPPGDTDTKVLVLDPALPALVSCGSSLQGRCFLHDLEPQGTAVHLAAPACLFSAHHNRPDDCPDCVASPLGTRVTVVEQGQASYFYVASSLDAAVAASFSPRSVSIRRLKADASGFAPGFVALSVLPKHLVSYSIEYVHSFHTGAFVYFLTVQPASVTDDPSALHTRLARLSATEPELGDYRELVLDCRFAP
# Sequence (Q04912 310-1400 limits assumed): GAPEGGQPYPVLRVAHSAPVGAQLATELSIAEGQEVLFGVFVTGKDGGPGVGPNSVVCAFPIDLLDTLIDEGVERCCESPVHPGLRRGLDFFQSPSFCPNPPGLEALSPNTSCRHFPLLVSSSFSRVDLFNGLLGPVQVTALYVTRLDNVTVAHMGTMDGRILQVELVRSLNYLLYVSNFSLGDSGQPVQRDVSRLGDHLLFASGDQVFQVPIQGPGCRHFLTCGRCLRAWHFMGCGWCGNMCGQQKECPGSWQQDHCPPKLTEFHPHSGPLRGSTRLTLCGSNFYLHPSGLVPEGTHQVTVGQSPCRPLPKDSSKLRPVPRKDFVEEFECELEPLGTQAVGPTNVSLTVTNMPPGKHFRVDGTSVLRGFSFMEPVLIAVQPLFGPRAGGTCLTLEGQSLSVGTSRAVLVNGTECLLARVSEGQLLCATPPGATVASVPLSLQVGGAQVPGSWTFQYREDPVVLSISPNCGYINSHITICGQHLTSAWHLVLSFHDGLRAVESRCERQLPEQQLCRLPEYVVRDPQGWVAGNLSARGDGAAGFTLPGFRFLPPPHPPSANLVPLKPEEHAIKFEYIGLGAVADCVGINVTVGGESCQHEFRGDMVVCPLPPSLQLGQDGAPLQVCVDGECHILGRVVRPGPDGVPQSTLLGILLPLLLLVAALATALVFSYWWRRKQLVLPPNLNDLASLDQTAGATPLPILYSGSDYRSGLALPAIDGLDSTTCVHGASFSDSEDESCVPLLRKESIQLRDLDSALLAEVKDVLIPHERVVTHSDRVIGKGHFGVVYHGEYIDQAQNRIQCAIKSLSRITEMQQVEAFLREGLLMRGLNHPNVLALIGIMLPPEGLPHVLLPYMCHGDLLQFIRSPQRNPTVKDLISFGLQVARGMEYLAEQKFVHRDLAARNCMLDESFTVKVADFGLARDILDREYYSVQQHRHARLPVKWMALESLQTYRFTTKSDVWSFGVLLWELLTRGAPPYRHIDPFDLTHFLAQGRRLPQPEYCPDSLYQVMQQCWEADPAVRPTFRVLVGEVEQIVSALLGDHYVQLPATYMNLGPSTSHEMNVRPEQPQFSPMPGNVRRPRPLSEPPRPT
# applied.conditions: at 1 µM
# Description: GSK_PKIS: RON mean inhibition at 1 uM [Nanosyn]
Numbers only, in %.

Please review the entries below; each comes with its answer.
O=C(O[C@H]1CN[C@H](C#Cc2cc3ncnc(Nc4ccc(OCc5cccc(F)c5)c(Cl)c4)c3s2)C1)N1CCOCC1	12.9
CN1CCC(n2cnc(-c3ccc(F)cc3)c2-c2ccnc(NCCO)n2)CC1	-1.06
CCCNc1cccc(-n2ncc3c(N/N=C/c4ccncc4)ncnc32)c1	57.9
COC(=O)Nc1nc2cc(Oc3ccc(NC(=O)Nc4ccccc4)cc3)ccc2[nH]1	8.17
O=C(O[C@H]1CN[C@H](C#Cc2cc3ncnc(Nc4ccc5c(cnn5Cc5ccccc5)c4)c3s2)C1)N1CCOCC1	2.37

Record inhibition per entry; entries follow.
1. Cc1cc(O)cc(C)c1/C=C/c1cncc(C(=O)OC(C)(C)C)c1
2. CN(C)CCNC(=O)Nc1ccc(N(C)c2ccnc(Nc3ccc(CS(C)(=O)=O)cc3)n2)cc1
3. CCOc1ccc2c(-c3ccnc(Nc4cc(OC)cc(C(F)(F)F)c4)n3)cnn2n1

A.
1: 8.66; 2: 7.76; 3: 7.47

Summary line: COc1cc(Nc2ncc(-c3ccccc3)o2)cc(OC)c1 , Macrophage-stimulating protein receptor (Homo sapiens) (UniProt Q04912), reported inhibition = -0.05

----------
Field: inhibition. Provide a value for each of the compounds that follow.
# system.tested: Serine/threonine-protein kinase SIK2 (Homo sapiens)
# applied.conditions: at 0.1 µM
# Description: GSK_PKIS: SNF1LK2 (QIK) mean inhibition at 0.1 uM [Nanosyn]
Give the number first and the unit second.

Known inhibition results, listed for orientation:
CS(=O)(=O)Nc1ccc(-c2cc(-c3ccccc3)cc(C(N)=O)c2N)cc1	-1.02%
CNC(=O)c1cncc(/C=C/c2ccccc2C)c1	9%
COc1cc2c(cc1Nc1nc(Nc3cccc(F)c3C(N)=O)c3cc[nH]c3n1)N(C(=O)CN1CCN(C(C)C)CC1)CC2	3.09%
Fc1ccc(Nc2nccc(-c3c(-c4ccc(C(F)(F)F)cc4)nn4ncccc34)n2)cc1F	3.76%
N#Cc1ccc2c(-c3ccnc(NC4CC4)n3)c(-c3ccc(F)cc3)nn2c1	24.1%

For every listed record, write down its inhibition.
1. CS(=O)(=O)Nc1ccc(-c2ccc3c(NC(=O)C4CC4)n[nH]c3c2)cc1
2. NS(=O)(=O)c1ccc(N/N=C2\C(=O)Nc3ccc(C(=O)NCc4ccncc4)cc32)cc1
3. NS(=O)(=O)c1ccc(N/N=C2\C(=O)Nc3cccc(CCc4ccncc4)c32)cc1

A.
["5.95%", "6.03%", "2.91%"]

----------
# system.tested: Protein kinase C beta type (Homo sapiens) (UniProt P05771);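 also: measured against the PKC-beta2 splice variant, with values reported as mean percent inhibition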
# Sequence (P05771 2-671 limits assumed): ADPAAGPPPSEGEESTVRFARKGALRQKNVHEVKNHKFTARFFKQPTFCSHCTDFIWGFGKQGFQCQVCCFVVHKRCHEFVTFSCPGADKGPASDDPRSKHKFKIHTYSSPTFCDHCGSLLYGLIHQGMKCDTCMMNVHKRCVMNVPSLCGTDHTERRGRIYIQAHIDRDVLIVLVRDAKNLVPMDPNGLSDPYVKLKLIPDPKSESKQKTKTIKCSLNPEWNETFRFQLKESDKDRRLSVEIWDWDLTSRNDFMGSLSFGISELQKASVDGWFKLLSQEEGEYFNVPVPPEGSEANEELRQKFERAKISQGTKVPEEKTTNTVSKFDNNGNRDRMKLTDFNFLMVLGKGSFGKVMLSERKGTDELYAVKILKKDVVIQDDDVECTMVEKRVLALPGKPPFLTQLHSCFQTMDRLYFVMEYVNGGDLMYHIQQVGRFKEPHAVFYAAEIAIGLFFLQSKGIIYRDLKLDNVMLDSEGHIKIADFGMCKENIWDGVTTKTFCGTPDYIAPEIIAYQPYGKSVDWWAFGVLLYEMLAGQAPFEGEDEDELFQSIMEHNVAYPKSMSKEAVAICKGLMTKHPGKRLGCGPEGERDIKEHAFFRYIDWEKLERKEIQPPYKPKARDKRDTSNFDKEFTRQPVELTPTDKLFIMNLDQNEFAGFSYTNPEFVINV
# applied.conditions: at 0.1 µM
# Description: GSK_PKIS: PKC-beta2 (splice variant) mean inhibition at 0.1 uM [Nanosyn]
I'd be grateful if you could share measured inhibition for these entries.
Numbers only, in %.

Give me inhibition for each of these compounds, listed below.
1. NC(=O)c1ccc2c(-c3ccnc(NCCCO)n3)c(-c3ccc(F)cc3)nn2c1
2. O=C1Nc2ccccc2/C1=C1\CCc2cc(O)ccc21
3. CC(C)c1ccc(-c2cc(-c3c[nH]nc3-c3ccccn3)ccn2)cc1
4. COc1ccccc1-c1cc(/C=C2\C(=O)Nc3ncc(Br)cc32)cc(Br)c1O
5. Fc1ccc(Nc2nccc(-c3c(-c4ccc(C(F)(F)F)cc4)nn4ncccc34)n2)cc1F
6. O=C(O[C@H]1CN[C@H](C#Cc2cc3ncnc(Nc4ccc5c(cnn5Cc5ccccc5)c4)c3s2)C1)N1CCOCC1
7. Cc1ccc(-c2cc3c(NC(=O)C4CC4)ncnc3o2)cc1
8. N#Cc1ccc2c(-c3ccnc(NC4CC4)n3)c(-c3ccc(F)cc3)nn2c1

A.
1. 4.8
2. 1.94
3. 0.43
4. 2.24
5. 0.7
6. -0.16
7. 5.24
8. 1.33

----------
# system.tested: Leucine-rich repeat serine/threonine-protein kinase 2 (Homo sapiens) (UniProt Q5S007);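 also: reported values are averaged percent inhibition of LRRK2 kinase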
# Sequence (Q5S007 whole entry): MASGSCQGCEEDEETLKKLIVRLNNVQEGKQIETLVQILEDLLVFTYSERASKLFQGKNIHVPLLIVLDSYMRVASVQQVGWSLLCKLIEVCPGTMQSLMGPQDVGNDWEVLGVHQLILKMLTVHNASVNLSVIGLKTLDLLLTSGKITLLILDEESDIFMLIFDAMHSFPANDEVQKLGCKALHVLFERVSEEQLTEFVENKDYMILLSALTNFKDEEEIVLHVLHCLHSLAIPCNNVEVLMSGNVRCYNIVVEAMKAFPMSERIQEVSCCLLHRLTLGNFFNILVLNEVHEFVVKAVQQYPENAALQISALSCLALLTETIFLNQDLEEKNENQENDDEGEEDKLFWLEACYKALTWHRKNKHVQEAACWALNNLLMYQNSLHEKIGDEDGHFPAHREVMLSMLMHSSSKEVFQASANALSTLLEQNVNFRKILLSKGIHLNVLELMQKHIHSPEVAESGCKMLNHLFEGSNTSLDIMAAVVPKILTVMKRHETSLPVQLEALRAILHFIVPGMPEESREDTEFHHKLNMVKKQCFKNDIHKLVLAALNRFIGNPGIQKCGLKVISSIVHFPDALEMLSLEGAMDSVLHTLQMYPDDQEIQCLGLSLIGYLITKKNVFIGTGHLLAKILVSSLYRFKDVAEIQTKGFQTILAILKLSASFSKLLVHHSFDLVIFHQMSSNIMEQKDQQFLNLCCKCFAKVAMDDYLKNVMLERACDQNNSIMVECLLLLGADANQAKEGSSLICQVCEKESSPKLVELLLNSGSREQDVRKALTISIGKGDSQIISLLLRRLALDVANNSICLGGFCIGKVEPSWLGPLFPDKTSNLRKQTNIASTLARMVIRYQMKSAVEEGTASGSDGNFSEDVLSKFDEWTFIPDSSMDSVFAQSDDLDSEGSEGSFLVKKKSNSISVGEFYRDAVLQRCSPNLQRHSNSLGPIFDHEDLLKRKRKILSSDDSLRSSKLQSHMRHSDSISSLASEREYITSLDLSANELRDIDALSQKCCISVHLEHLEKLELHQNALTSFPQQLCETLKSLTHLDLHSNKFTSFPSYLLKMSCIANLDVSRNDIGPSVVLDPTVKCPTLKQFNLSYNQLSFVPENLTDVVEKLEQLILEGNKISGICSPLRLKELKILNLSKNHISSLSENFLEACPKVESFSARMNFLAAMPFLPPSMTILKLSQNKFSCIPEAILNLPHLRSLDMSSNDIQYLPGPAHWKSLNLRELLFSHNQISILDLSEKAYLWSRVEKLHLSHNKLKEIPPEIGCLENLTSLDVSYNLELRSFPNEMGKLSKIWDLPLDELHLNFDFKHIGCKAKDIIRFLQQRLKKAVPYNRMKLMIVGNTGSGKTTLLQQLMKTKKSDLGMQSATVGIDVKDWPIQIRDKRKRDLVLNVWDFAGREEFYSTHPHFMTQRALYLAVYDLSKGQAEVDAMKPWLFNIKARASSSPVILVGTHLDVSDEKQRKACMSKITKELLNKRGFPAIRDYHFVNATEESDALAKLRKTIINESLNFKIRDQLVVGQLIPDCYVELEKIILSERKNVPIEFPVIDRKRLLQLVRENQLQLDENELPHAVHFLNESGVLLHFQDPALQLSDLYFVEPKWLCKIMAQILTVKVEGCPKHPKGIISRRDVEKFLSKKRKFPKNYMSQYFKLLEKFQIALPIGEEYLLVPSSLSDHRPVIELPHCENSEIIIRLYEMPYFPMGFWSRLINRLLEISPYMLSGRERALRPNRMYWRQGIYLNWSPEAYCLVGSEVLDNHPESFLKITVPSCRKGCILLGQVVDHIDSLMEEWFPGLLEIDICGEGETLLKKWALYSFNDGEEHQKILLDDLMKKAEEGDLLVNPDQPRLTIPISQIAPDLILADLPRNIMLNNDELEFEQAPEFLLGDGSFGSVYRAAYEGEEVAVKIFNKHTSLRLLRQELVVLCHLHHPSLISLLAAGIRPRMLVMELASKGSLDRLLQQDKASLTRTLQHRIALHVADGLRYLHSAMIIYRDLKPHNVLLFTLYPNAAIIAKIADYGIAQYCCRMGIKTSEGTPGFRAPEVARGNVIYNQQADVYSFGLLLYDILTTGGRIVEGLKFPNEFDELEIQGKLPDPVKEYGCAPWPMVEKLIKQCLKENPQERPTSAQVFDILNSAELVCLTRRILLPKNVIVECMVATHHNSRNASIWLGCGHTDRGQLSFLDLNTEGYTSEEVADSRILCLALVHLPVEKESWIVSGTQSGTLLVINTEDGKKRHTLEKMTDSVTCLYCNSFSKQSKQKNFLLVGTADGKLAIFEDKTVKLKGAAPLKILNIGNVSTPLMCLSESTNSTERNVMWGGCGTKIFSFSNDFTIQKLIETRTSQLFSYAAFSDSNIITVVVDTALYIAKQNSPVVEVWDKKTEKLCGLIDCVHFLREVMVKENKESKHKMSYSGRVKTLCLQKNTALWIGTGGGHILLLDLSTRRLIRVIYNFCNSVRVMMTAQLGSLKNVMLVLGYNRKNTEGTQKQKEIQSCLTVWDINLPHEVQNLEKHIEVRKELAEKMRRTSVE
# applied.conditions: at 0.1 µM
Decision: inhibition compared against 2%; not below it gives YES, below it gives NO.

Example cases with answers are listed next.
CS(=O)(=O)Nc1ccc(-c2cc(-c3ccccc3)cc(C(N)=O)c2N)cc1	NO
NS(=O)(=O)c1ccc(N/N=C2\C(=O)Nc3ccc(C(=O)NCc4ccncc4)cc32)cc1	YES
CCS(=O)(=O)c1ccc(OC)c(Nc2ncc(-c3cccc(F)c3)o2)c1	YES
CN1CCC(n2cnc(-c3ccc(F)cc3)c2-c2ccnc(NCCO)n2)CC1	YES
COc1cc(Nc2ncc(-c3ccccc3)o2)cc(OC)c1	NO
c1cnn2ncc(-c3ccnc(NCCCN4CCOCC4)n3)c2c1	NO
CN(C)CCNC(=O)Nc1ccc(N(C)c2ccnc(Nc3ccc(CS(C)(=O)=O)cc3)n2)cc1	YES
O=C(O[C@H]1CN[C@H](C#Cc2cc3ncnc(Nc4ccc5c(cnn5Cc5ccccc5)c4)c3s2)C1)N1CCOCC1	NO

As a next step, examine the compound that follows.
Q. Form field: inhibition at least 2%? Entry: O=C(O[C@H]1CN[C@H](C#Cc2cc3ncnc(Nc4ccc(OCc5cccc(F)c5)c(Cl)c4)c3s2)C1)N1CCOCC1
A. YES

----------
# system.tested: Dual specificity tyrosine-phosphorylation-regulated kinase 1A (Homo sapiens) (UniProt Q13627)
# applied.conditions: at 0.1 µM
# Description: GSK_PKIS: DYRK1A mean inhibition at 0.1 uM [Nanosyn]
Give inhibition for every item shown.
One number for each entry, in %.

FC(F)(F)CNc1nccc(-c2cnn3ncccc23)n1	14.6
N#Cc1cccc(Nc2ncc(-c3ccccc3)o2)c1	1.47
COc1cccc(Nc2nccc(-c3cnn4ncccc34)n2)c1	77.4

Would you be so kind as to report inhibition for each listed record?
1. CS(=O)(=O)Nc1ccc(-c2cc(-c3ccccc3)cc(C(N)=O)c2N)cc1
2. N#Cc1ccc2c(-c3ccnc(NC4CC4)n3)c(-c3ccc(F)cc3)nn2c1
3. OCCCNc1nccc(-c2c(-c3ccc(F)cc3)nn3cc(C(F)(F)F)ccc23)n1
4. CCS(=O)(=O)c1ccc(OC)c(Nc2ncc(-c3cccc(F)c3)o2)c1
5. COC(=O)Nc1nc2ccc(Oc3ccc(NC(=O)Nc4cc(C(F)(F)F)ccc4F)cc3)cc2s1

A.
[0.57, 1.91, 1.47, 4.83, 0.96]
